# Tested on: MOLT-4 leukemia
# measurementDescription: NCI tumour cell line growth inhibition, 48 h; in the data active means GI50 below about 0.43 µM; inactive means the rest
Pick from Y = active, N = inactive when you respond.

compound	groupLabel
Nc1nc(-n2c(-c3ccccc3)nc3c(Br)cc(Br)cc3c2=O)nnc1-c1cccc(Cl)c1Cl	N
Cc1nc2sccn2c1-c1csc(Nc2ccccc2Cl)n1	N
O=C1NC(=NCCc2cccc(F)c2)S/C1=C\c1ccc2ncccc2c1	N
COc1ccc2c(c1)sc1nc(-c3ccccc3)c(-c3cccc4ccccc34)n12	N
CC(=O)OC1OC([C@@H]2c3cccc(O)c3C(=O)c3c(O)cc(C)cc32)C(O)C(O)C1O (stereo partly specified)	Y

Query :: What did this assay record as the result for Fc1[nH]nc2ccc([C@@H]3Nc4ccc5[nH]ncc5c4[C@H]4C5CCC(C5)[C@@H]34)cc12 (stereo partly specified) ?
Result :: N

----------
# Tested on: MDA-MB-435
# measurementDescription: NCI tumour cell line growth inhibition, 48 h
Measured TGI, listed per entry.

Here's what some known entries look like.
molecule	TGI
Fc1[nH]nc2ccc([C@@H]3Nc4ccc5[nH]ncc5c4[C@H]4C5CCC(C5)[C@@H]34)cc12 (stereo not given in full)	1.08 µM
COC1/C=C/OC2(C)Oc3c(C)c(O)c4c(O)c(c(/C=N/Nc5ccc([N+](=O)[O-])cc5[N+](=O)[O-])c(O)c4c3C2=O)NC(=O)C(C)=C/C=C/C(C)C(O)C(C)C(O)C(C)C(OC(C)=O)C1C (stereo not given)	3.72 µM
CC(C)(C)OC(=O)NCCCCC1NC(=O)[C@@H]2Cc3c([nH]c4ccccc34)C(C3CCCCC3)N2C1=O (stereo not given in full)	> 100 µM
C1CN(c2nc3c(nnc4nc(N5CCOCC5)sc43)s2)CCO1	> 100 µM
c1ccc(-c2nc(-c3ccccc3SSc3ccccc3-c3nc(-c4ccccc4)nn3-c3ccccc3)n(-c3ccccc3)n2)cc1	> 100 µM

Query :: Report TGI for O=c1c2cc([N+](=O)[O-])cnc2sn1-c1ccc([N+](=O)[O-])cc1 please.
Result :: > 100 µM

Query :: Report TGI for CC(C)=CCC\C(C)=C/C=C/C(C)=C\C=C\C(C)=C/C=C/C=C(C)\C=C\C=C(C)/C=C/C=C(/C)CCC=C(C)C please.
Result :: > 100 µM

Query :: Report TGI for Cc1n[nH]c(=O)n1/N=C/c1ccc(Cl)cc1 please.
Result :: > 100 µM

Query :: Report TGI for O=c1[nH]c(Nc2cccc(CC(F)(F)F)c2)nc2nc[nH]c12 please.
Result :: > 100 µM

Query :: Report TGI for Cc1ccc([N+](=O)[O-])cc1NC1=NCCO1 please.
Result :: > 100 µM

Query :: Report TGI for Cc1cc(Cc2cc(C)c(N)cc2N)c(N)cc1N please.
Result :: > 100 µM

Query :: Report TGI for O=C1CCCSC(=O)N1Cc1ccccc1 please.
Result :: > 100 µM

Query :: Report TGI for Nn1c(-c2ccccc2)nn(C(=O)c2ccccc2)c1=O please.
Result :: > 100 µM

Query :: Report TGI for COc1ccc2cc(NC(=O)N/N=C\c3ccc([N+](=O)[O-])cc3)ccc2c1 please.
Result :: > 100 µM

Query :: Report TGI for N#CCCC1C(C#N)C2(Cl)CC1(Cl)C(Cl)=C2Cl (stereo not given) please.
Result :: > 10 µM

Query :: Report TGI for COc1cc(C(=O)N(C(=S)OCc2ccccn2)c2ccccc2)cc(OC)c1OC please.
Result :: > 100 µM

Query :: Report TGI for CCN1CCN(Cc2ccc(NC(=O)c3cccc(C#Cc4cccc5[nH]nc(N)c45)c3)cc2C(F)(F)F)CC1 please.
Result :: 1.57 µM

Query :: Report TGI for O=C1NC(=NCCc2cccc(F)c2)S/C1=C\c1ccc2ncccc2c1 please.
Result :: 1.19 µM

Query :: Report TGI for Cc1cnc(NCCCN(C)C)c2c1[nH]c1ccc3cc(O)ccc3c12 please.
Result :: 2.3 µM

Query :: Report TGI for C=CCOc1ccc2c(C)cc(=O)oc2c1C please.
Result :: > 100 µM

----------
# System: ACHN renal
# measurementDescription: NCI tumour cell line growth inhibition, 48 h
Measured GI50, listed per entry.

Here's what some known entries look like.
compound	GI50
C=C(C)C(OC)C(O)CC1(C)CC(O)CC(C)(C2CCC3OC(C4(C)CCC(Br)C(C)(C)O4)CCC3(C)O2)O1 (stereo not given)	26.4 µM
Fc1[nH]nc2ccc([C@@H]3Nc4ccc5[nH]ncc5c4[C@H]4C5CCC(C5)[C@@H]34)cc12 (stereo not given in full)	1.52 µM
CC1CCC(n2c3cnccc3c3cnc(Nc4ccc5c(n4)CCN(C(=O)CO)C5)nc32)CC1 (stereo not given)	0.469 µM
Nc1c(C(=O)c2cccc(CCS(N)(=O)=O)c2)cnn1-c1ccc(F)cc1	> 25 µM

Next up:
Query :: Report GI50 for Nc1ccccc1C#C/C=C\C#Cc1ccccc1OC(F)(F)F please.
Result :: 9.15 µM

----------
# System: MOLT-4 leukemia
# measurementDescription: NCI tumour cell line growth inhibition, 48 h
Measured TGI, listed per entry.

Query :: Report TGI for O=C1CCCSC(=O)N1Cc1ccccc1 please.
Result :: > 100 µM

Query :: Report TGI for COC(=O)c1c(C)cccc1C1CN=NC12Cc1ccc(C)cc1C2=O (stereo unspecified) please.
Result :: 84.7 µM

Query :: Report TGI for Cc1ccc(CN2CCC(C(=O)Nc3ccc(-c4cc5ccccc5[nH]4)cc3)CC2)o1 please.
Result :: > 100 µM

Query :: Report TGI for Cc1cc(-c2nc(C(=O)Nc3cc4oc(N5CCOCC5)nc4nc3N3CC[C@@H](O)C3)co2)ccn1 please.
Result :: > 100 µM

Query :: Report TGI for O=C(N/N=C(/COc1ccc(Cl)cc1)N=Cc1ccncc1)c1ccncc1 please.
Result :: > 100 µM

Query :: Report TGI for Cc1ccsc1C(=S)Nc1ccc(Cl)c(/C=N/OC(C)(C)C)c1 please.
Result :: > 100 µM

Query :: Report TGI for COc1cc2c(c(OC)c1OC)C(=O)[C@@H]1[C@H]2N1C(N)=O please.
Result :: > 100 µM

Query :: Report TGI for COc1ccc(C2CC(c3c(O)ccc4ccccc34)=NN2C(C)=O)cc1OC (stereo unspecified) please.
Result :: 53.6 µM

Query :: Report TGI for Clc1ccccc1C(SCc1ccccc1)SCc1ccccc1 please.
Result :: > 100 µM

Query :: Report TGI for CC1(C)N=[N+]([O-])C1(C)C please.
Result :: > 100 µM

Query :: Report TGI for O=C(Nc1ccc(F)cc1)Nc1ccc(Cl)c([N+](=O)[O-])c1 please.
Result :: 92.9 µM

Query :: Report TGI for N#CC1(C#N)N[C@@H](c2ccsc2)[C@H]2C(=O)N(c3ccccc3)C(=O)[C@H]21 please.
Result :: > 100 µM

Query :: Report TGI for Nc1c2c(nc3ccccc13)-c1ccccc1CC2 please.
Result :: 9.23 µM

Query :: Report TGI for CNC(=S)OCCC(C)CCCC(C)C (stereo unspecified) please.
Result :: 27.1 µM

Query :: Report TGI for COc1ccc2cc(NC(=O)N/N=C\c3ccc([N+](=O)[O-])cc3)ccc2c1 please.
Result :: > 100 µM

Query :: Report TGI for CC1CCc2nc[nH]c(=O)c21 (stereo unspecified) please.
Result :: > 100 µM

Query :: Report TGI for OCC1=CC(NC2CC(CO)C(O)C(O)C2O)C(O)C(O)C1O (stereo unspecified) please.
Result :: > 100 µM

----------
# System: A549 NSCLC
# measurementDescription: NCI tumour cell line growth inhibition, 48 h
Measured TGI, listed per entry.

Here's what some known entries look like.
compound	TGI
COc1ccc2cc(NC(=O)N/N=C\c3ccc([N+](=O)[O-])cc3)ccc2c1	> 100 µM
COc1ccc(COCCOCc2nc(C#N)c(N)o2)cc1	> 100 µM
Fc1[nH]nc2ccc([C@@H]3Nc4ccc5[nH]ncc5c4[C@H]4C5CCC(C5)[C@@H]34)cc12 (stereo not given in full)	12.1 µM
O=C1CC(NC(=O)C(F)(F)F)c2c(Br)sc(N3CCNCC3)c21 (stereo not given)	> 100 µM
CCOC(=O)/C=C/CC(C)(C)CCOC(C)=O	> 10 µM

Query :: Find the measured TGI: item O=C1/C(=C\c2ccccc2)C(NC2CCCCC2)c2ccccc21 (stereo not given) , target or system A549 NSCLC.
Result :: 16.4 µM

Query :: Find the measured TGI: item COc1ccc(N/N=C2\CCOc3ccc(C)cc3C2=O)cc1 , target or system A549 NSCLC.
Result :: > 100 µM

Query :: Find the measured TGI: item COc1cc2ccnc([C@@H](OC(=O)c3ccccc3)c3ccc(OC)c(OC)c3OC)c2cc1OC , target or system A549 NSCLC.
Result :: > 100 µM

Query :: Find the measured TGI: item COc1cccc(-c2cc(-c3cccc(NS(C)(=O)=O)c3)nc(N)c2C#N)c1O , target or system A549 NSCLC.
Result :: > 100 µM

Query :: Find the measured TGI: item C=C(C)C(OC)C(O)CC1(C)CC(O)CC(C)(C2CCC3OC(C4(C)CCC(Br)C(C)(C)O4)CCC3(C)O2)O1 (stereo not given) , target or system A549 NSCLC.
Result :: > 58 µM
